The following molecules are listed with their measured mortality at 10 mg/kg values.
system: mosquito larvae (Culer pipiens pallens); test: Test of insecticidal activity against mosquito larvae (checked after 24 h); conditions: 24 h, read-out: Mortalities (%) against mosquito larvae
Number only, in %; omit the unit.

{"CHEMICAL_STRING": "CCCS(=O)(=O)NN1CC(C)=NNC1=O", "OBSERVABLE": "mortality at 10 mg/kg", "TEST_VALUE": 55}
{"CHEMICAL_STRING": "CC1=NNC(=O)N(NS(=O)(=O)c2ccc(Br)cc2)C1", "OBSERVABLE": "mortality at 10 mg/kg", "TEST_VALUE": 100}
{"CHEMICAL_STRING": "CC1=NNC(=O)N(NS(=O)(=O)c2ccc3c(c2)OCCO3)C1", "OBSERVABLE": "mortality at 10 mg/kg", "TEST_VALUE": 15}

**Q:** Param readout = mortality at 10 mg/kg; param system = mosquito larvae (Culer pipiens pallens); param query = CC1=NNC(=O)N(NS(=O)(=O)c2ccc(C#N)cc2)C1 ; response: value
**A:** 100

**Q:** Would you kindly repeat that for CCCCS(=O)(=O)NN1CC(C)=NNC1=O ?
**A:** 20

**Q:** Would you kindly repeat that for CC1=NNC(=O)N(NS(=O)(=O)Cc2ccccc2)C1 ?
**A:** 70

**Q:** Would you kindly repeat that for CC1=NNC(=O)N(NS(=O)(=O)c2c(C)noc2C)C1 ?
**A:** 35

**Q:** Would you kindly repeat that for CC1=NNC(=O)N(NS(=O)(=O)c2cn(C)cn2)C1 ?
**A:** 60

**Q:** Would you kindly repeat that for CC1=NNC(=O)N(NS(=O)(=O)c2ccc(C(C)(C)C)cc2)C1 ?
**A:** 100

**Q:** Would you kindly repeat that for CC1=NNC(=O)N(NS(=O)(=O)c2ccc(F)c(F)c2F)C1 ?
**A:** 100

**Q:** Would you kindly repeat that for CC1=NNC(=O)N(NS(=O)(=O)C2CCCCC2)C1 ?
**A:** 70
